biological target: Phospholipase A and acyltransferase 4 (Homo sapiens); test: Inhibition of full-length C-terminal FLAG-tagged human PLAAT4 expressed in HEK293T cell lysate preincubated for 30 mins followed by MB064 addition and measured after 20 mins by SDS-PAGE based ABPP analysis
Sequence (Q9UL19 whole entry): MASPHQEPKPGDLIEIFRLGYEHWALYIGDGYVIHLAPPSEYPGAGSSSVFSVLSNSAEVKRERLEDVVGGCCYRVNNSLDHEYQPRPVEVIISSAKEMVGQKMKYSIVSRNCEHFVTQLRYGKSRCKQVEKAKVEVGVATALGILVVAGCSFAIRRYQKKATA
Reported Metric: IC50 (µM)
Answers are plain numbers, in µM.

Observe how each entry below is paired with its result.
{"columns": ["Structure String", "Subject Of Test", "Value"],
 "data": [
  ["Cc1ccc(CCNC(=O)C(=O)CCCc2ccccc2)cc1", "Phospholipase A and acyltransferase 4 (Homo sapiens)", 1.26],
  ["O=C(/C=C/c1cccc(-c2ccccc2)c1)C(=O)NCCc1ccccc1", "Phospholipase A and acyltransferase 4 (Homo sapiens)", 2.51],
  ["O=C(/C=C/c1ccc(Br)cc1)C(=O)NCCc1ccccc1", "Phospholipase A and acyltransferase 4 (Homo sapiens)", 6.31],
  ["O=C(CCCc1ccccc1)C(=O)NCCc1ccc(Oc2cnccn2)cc1", "Phospholipase A and acyltransferase 4 (Homo sapiens)", 0.631],
  ["O=C(CCCc1ccccc1)C(=O)NCCc1ccc(Oc2ncccn2)cc1", "Phospholipase A and acyltransferase 4 (Homo sapiens)", 1.26],
  ["O=C(CCCc1ccccc1)C(=O)NCCc1ccc(Oc2ccccc2)cc1", "Phospholipase A and acyltransferase 4 (Homo sapiens)", 0.0501],
  ["O=C(CCCc1ccccc1)C(=O)NCCc1ccc(O)cc1", "Phospholipase A and acyltransferase 4 (Homo sapiens)", 2.51],
  ["O=C(CCc1cccc(Cl)c1)C(=O)NCCc1ccccc1", "Phospholipase A and acyltransferase 4 (Homo sapiens)", 1.26]
]}

Hello, I would appreciate it if you could give IC50 for each entry below.
1. O=C(CCCc1ccccc1)C(=O)NCCc1ccccc1
2. COc1ccc(CCNC(=O)C(=O)CCCc2ccccc2)cc1
3. O=C(/C=C/c1cccc(Br)c1)C(=O)NCCc1ccccc1
4. O=C(CCCc1ccccc1)C(=O)NCCc1ccc(Oc2ccc(C(F)(F)F)cn2)cc1
5. CCNC(=O)C(=O)CCc1ccc(Cl)cc1
6. Cc1ccc(CCC(=O)C(=O)NCCc2ccccc2)cc1
7. O=C(CCc1ccc(F)cc1)C(=O)NCCc1ccccc1
8. O=C(CCc1ccc(Cl)cc1)C(=O)NCCCCc1ccccc1

Ans:
1: 0.631; 2: 1.58; 3: 7.94; 4: 0.631; 5: 3.98; 6: 1.58; 7: 10; 8: 1.58

Q: Quickly give me recorded IC50 for O=C(/C=C/c1ccccc1)C(=O)NCCc1ccccc1
Ans: 10
